tested on: CDS-ZH002 direct (CIC-DUX4 sarcoma cells right after isolation); assay: differential drug sensitivity score (dDSS) relative to sarcoma reference cohort mean DSS (DSS units (0-100 scale difference)); higher = more selective sensitivity than reference sarcomas; settings: exposure time: 72 h; concentration range: 10-10000 nM
PROPERTY MEASURED: differential drug sensitivity score
# output: bare number, no unit

These solved cases illustrate the format of a correct answer.
| COMPOUND | TARGET ENTITY | differential drug sensitivity score |
| --- | --- | --- |
| CC(=O)O[C@@]12CO[C@@H]1C[C@H](O)[C@@]1(C)C(=O)[C@H](O)C3=C(C)[C@@H](OC(=O)[C@H](O)[C@@H](NC(=O)OC(C)(C)C)c4ccccc4)C[C@@](O)([C@@H](OC(=O)c4ccccc4)[C@H]21)C3(C)C [Docetaxel] | CDS-ZH002 direct | 2 |
| COc1ccc(-c2ccc3c(N4CCOC[C@@H]4C)nc(N4CCOC[C@@H]4C)nc3n2)cc1CO [AZD8055] | CDS-ZH002 direct | -2.1 |

Now for a further compound.
For CC[C@@H]1C(=O)N(C)c2cnc(Nc3ccc(C(=O)N[C@H]4CC[C@H](N5CCN(CC6CC6)CC5)CC4)cc3OC)nc2N1C(C)C [Volasertib] , what is its reported differential drug sensitivity score?
-3.8

====

system: CDS-ZH002 direct; experiment: differential drug sensitivity score (dDSS) relative to sarcoma reference cohort mean DSS (DSS units (0-100 scale difference)); higher = more selective sensitivity than reference sarcomas; conditions: exposure time: 72 h; concentration range: 10-10000 nM
The reader will find reported differential drug sensitivity score values listed item by item below.

These solved cases illustrate the format of a correct answer.
| SMILES REPR | TARGET ENTITY | differential drug sensitivity score |
| --- | --- | --- |
| Cn1ncc(Cl)c1-c1cc(C(=O)N[C@H](CN)Cc2ccc(F)c(F)c2)oc1Cl | CDS-ZH002 direct | -6 |
| CC[C@@H]1C(=O)N(C)c2cnc(Nc3ccc(C(=O)NC4CCN(C)CC4)cc3OC)nc2N1C1CCCC1 | CDS-ZH002 direct | -8 |
| COc1cc(Nc2ncc3c(n2)-c2ccc(Cl)cc2C(c2c(F)cccc2OC)=NC3)ccc1C(=O)O | CDS-ZH002 direct | -7.3 |
| N[C@@H]1CCCN(c2c(/C=C3\SC(=O)NC3=O)cccc2-c2ccccc2)C1 | CDS-ZH002 direct | 1.1 |
| O=C(Nc1cnn2ccc(N3CCC[C@@H]3c3cc(F)ccc3F)nc12)N1CC[C@H](O)C1 | CDS-ZH002 direct | -0.9 |

For Nc1ccccc1NC(=O)c1ccc(CNC(=O)OCc2cccnc2)cc1 , what is its reported differential drug sensitivity score?
1.3

Would you kindly repeat that for Nc1cc(C(F)(F)F)c(-c2cc(N3CCOCC3)nc(N3CCOCC3)n2)cn1 ?
-2.5

Would you kindly repeat that for Nc1ncn([C@@H]2O[C@H](CO)[C@@H](O)[C@H]2O)c(=O)n1 ?
0.2

Would you kindly repeat that for CO[C@@]12[C@H](COC(N)=O)C3=C(C(=O)C(C)=C(N)C3=O)N1C[C@@H]1N[C@@H]12 ?
-3.8

Would you kindly repeat that for O=C(Nc1ccncc1)c1cc([N+](=O)[O-])ccc1Cl ?
5.4

Would you kindly repeat that for CCNC(=O)c1noc(-c2cc(C(C)C)c(O)cc2O)c1-c1ccc(CN2CCOCC2)cc1 ?
-3.8
